biological target: HLA-A*01:01; assay: IEDB peptide-MHC binding, purified MHC/competitive/radioactivity; bounds were set here for any values at or beyond the usual limits of such assays; conditions: source organism: unidentified
Provide the recorded pIC50 for the entries that follow.
pIC50 (log units): -log10 of the concentration in mol/L.

Exercise: Item EKPHSEAGTAF : provide pIC50
Solution: 5.00

Exercise: Output measured pIC50 for this item: ADTDSPLRY
Solution: 7.49

Exercise: Look up pIC50 of ETESQQIRY and report it.
Solution: 7.52

Exercise: Write down pIC50 measured for item GLELSGCIVY
Solution: 5.29

Exercise: Recall and state the measured pIC50 for LVIDNGSGMCKG .
Solution: 4.58

Exercise: Given the sequence GCLDTAQRNLY , write its reported pIC50.
Solution: 6.70

Exercise: Look up and report measured pIC50 for this entry: DKDGCMVEQY
Solution: 5.00

Exercise: Supply pIC50 value. Item: PHSPALQPI
Solution: 5.77
